test system: Lettuce; experiment: Weed and crop Petri dish bioassay, radicle length; type: in vivo, Lactuca sativa L.; details: Lactuca sativa, read-out: I50
measurement-type: IC50 (µM)
API: value field is a number in µM; no unit string.

Incoming: May I ask what IC50 has been recorded for N[C@@H](Cc1cccc(O)c1)C(=O)O [m-tyrosine, 3-hydroxyphenylalanine] ?
Outgoing: 20

###

tested on: lettuce seedlings (Lactuca sativa L.); assay: Petri-dish bioassay, radicle elongation in lettuce seedlings; type: in vivo; conditions: Lactuca sativa; lettuce seedlings at 72 h; read-out: concentration for 50% reduction of root growth
measurement-type: IC50 (µM)
API: value field is a number in µM; no unit string.

Incoming: May I ask what IC50 has been recorded for N[C@@H](Cc1cccc(O)c1)C(=O)O [m-tyrosine, 3-hydroxyphenylalanine] ?
Outgoing: 17
